Values from ChEMBL document CHEMBL1914324

- measurement.target: Fatty-acid amide hydrolase 1 (Homo sapiens) (UniProt O00519)
- Sequence (O00519 whole entry): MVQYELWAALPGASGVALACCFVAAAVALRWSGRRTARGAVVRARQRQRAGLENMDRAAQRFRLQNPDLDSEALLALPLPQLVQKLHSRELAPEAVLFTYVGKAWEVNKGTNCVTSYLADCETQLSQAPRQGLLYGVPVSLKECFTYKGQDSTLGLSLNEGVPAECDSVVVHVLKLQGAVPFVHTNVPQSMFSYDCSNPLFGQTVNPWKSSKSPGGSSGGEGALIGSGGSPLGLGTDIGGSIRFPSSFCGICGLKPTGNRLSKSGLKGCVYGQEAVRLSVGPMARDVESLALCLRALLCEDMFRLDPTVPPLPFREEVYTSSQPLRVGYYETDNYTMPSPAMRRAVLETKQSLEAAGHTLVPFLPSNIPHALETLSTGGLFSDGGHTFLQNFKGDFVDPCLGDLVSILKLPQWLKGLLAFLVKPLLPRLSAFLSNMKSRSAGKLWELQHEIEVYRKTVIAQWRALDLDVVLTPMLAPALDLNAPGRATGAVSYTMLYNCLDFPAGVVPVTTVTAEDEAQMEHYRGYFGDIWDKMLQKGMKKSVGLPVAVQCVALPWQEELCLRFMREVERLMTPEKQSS
- test.method.notes: Ratio of Kinact to Ki for human FAAH activity
hey, just use yes (1) if measured Ratio is less than 2000 M⁻¹ s⁻¹, otherwise no (0)

• Cn1nnnc1NC(=O)N1CCC2(CC1)CC(c1ccc(F)c(Cl)c1)C2 = no (0)
• COc1cccc(C2CC3(CCN(C(=O)Nc4onc(C)c4C)CC3)C2)c1 = no (0)
• Cc1noc(NC(=O)N2CCC3(CC2)CC(c2cccc(Cl)c2)CO3)c1C (stereo in doubt; form 1) = no (0)
• Cc1noc(NC(=O)N2CCC3(CC2)CC(c2cccc(C(F)(F)F)c2)C3)c1C = no (0)
• Cc1noc(NC(=O)N2CCC3(CC2)CC(c2ccc(C#N)cc2)CO3)c1C (racemic) = yes (1)

====

- test.method.notes: Plasma concentration in rat CFA model at 3 mg/kg, po after 4 hrs
- Assay type: ADME, organism-based
- Parameters: dose 3 mg/kg, route oral
test.readout: concentration at 4 h (nM)

* Cc1noc(NC(=O)N2CCC3(CC2)CC(c2ccc(F)c(Cl)c2)C3)c1C | 459

====

- test.method.notes: Clearance in dog
- Type: ADME, organism-based, Canis lupus familiaris
- measurement.conditions: in vivo
test.readout: clearance (mL/min/kg)

- Cc1noc(NC(=O)N2CCC3(CC2)CC(c2ccc(F)c(Cl)c2)C3)c1C: 11.1

====

- measurement.target: Fatty-acid amide hydrolase 1 (Homo sapiens)
- test.method.notes: Ratio of Kinact to Ki for human FAAH activity
test.readout: Ratio

* Cc1noc(NC(=O)N2CCC3(CC2)CC(c2cccc(C(F)(F)F)c2)CO3)c1C (racemic) | 1330 M⁻¹ s⁻¹
* Cc1noc(NC(=O)N2CCC3(CC2)CC(c2ccc(OC(F)(F)F)cc2)C3)c1C | 353 M⁻¹ s⁻¹
* Cc1nnc(NC(=O)N2CCC3(CC2)CC(c2cccc(OC(F)(F)F)c2)C3)o1 | 1530 M⁻¹ s⁻¹
* CCc1c(C)noc1NC(=O)N1CCC2(CC1)CC(c1cccc(OC(F)(F)F)c1)C2 | 338 M⁻¹ s⁻¹
* Cn1nnc(NC(=O)N2CCC3(CC2)CC(c2cccc(OC(F)(F)F)c2)C3)n1 | 165 M⁻¹ s⁻¹
* Cc1noc(NC(=O)N2CCC3(CC2)CC(c2ccccc2)C3)c1C | 2080 M⁻¹ s⁻¹
* Cc1noc(NC(=O)N2CCC3(CC2)CC(c2cccc(Cl)c2)C3)c1C | 3940 M⁻¹ s⁻¹
* Cn1nnnc1NC(=O)N1CCC2(CC1)CC(c1cccc(C(F)(F)F)c1)C2 | 12400 M⁻¹ s⁻¹
* Cc1noc(NC(=O)N2CCC3(CC2)CC(c2ccc(C(F)(F)F)cc2)C3)c1C | 245 M⁻¹ s⁻¹
* Cc1cc(NC(=O)N2CCC3(CC2)CC(c2cccc(OC(F)(F)F)c2)C3)on1 | 113 M⁻¹ s⁻¹
* Cc1noc(NC(=O)N2CCC3(CC2)CC(c2ccc(Cl)c(Cl)c2)CO3)c1C (racemic) | 2430 M⁻¹ s⁻¹
* CCc1cccc(C2CC3(CCN(C(=O)Nc4onc(C)c4C)CC3)C2)c1 | 5670 M⁻¹ s⁻¹
* COc1ccc(C2CC3(CCN(C(=O)Nc4onc(C)c4C)CC3)C2)cc1 | 1760 M⁻¹ s⁻¹
* Cc1onc(NC(=O)N2CCC3(CC2)CC(c2cccc(OC(F)(F)F)c2)C3)c1C | 64 M⁻¹ s⁻¹
* Cc1noc(NC(=O)N2CCC3(CC2)CC(c2ccc(OC(F)(F)F)cc2)CO3)c1C (racemic) | 162 M⁻¹ s⁻¹
* Cn1nnnc1NC(=O)N1CCC2(CC1)CC(c1cccc(OC(F)(F)F)c1)CO2 (stereo not given) | 7110 M⁻¹ s⁻¹
* Cc1noc(NC(=O)N2CCC3(CC2)CC(c2cccc(Cl)c2)CO3)c1C (stereo in doubt; form 2) | 2590 M⁻¹ s⁻¹
* CCn1nnnc1NC(=O)N1CCC2(CC1)CC(c1cccc(OC(F)(F)F)c1)C2 | 6940 M⁻¹ s⁻¹
* Cc1noc(NC(=O)N2CCC3(CC2)CC(c2cccc(Cl)c2)CO3)c1C (racemic) | 2040 M⁻¹ s⁻¹
* Cc1noc(NC(=O)N2CCC3(CC2)CC(c2ccc(F)c(Cl)c2)C3)c1C | 4190 M⁻¹ s⁻¹
